- tested_system: T1, LRRK2 COR-B construct (C-terminal part of the COR domain), His6-MBP tagged (human, UniProt Q5S007 1672-1840)
- T1 construct: also called (MBP-)COR-B; not shown: N-terminal His6-MBP-tag of pDEST-566
- T1 sequence (Q5S007 1672-1840): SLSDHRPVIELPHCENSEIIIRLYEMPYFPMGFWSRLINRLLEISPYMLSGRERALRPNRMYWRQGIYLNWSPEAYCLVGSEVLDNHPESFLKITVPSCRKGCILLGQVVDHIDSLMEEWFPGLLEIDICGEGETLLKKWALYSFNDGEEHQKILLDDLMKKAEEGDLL
- assay_comment: ELISA, purified Nb on coated domain constructs
value_type: binding result

The binder listed as Nb39 (CA14134) (VHH) VHH: QVQLVESGGGLVQAGGSLRLSCRASGGTFSTYAMGWFRQVPGKERETVAAVKWSGDMTYYADSVKGRFTISRDNAKNTVYLQMNSLRPEDTAVYYCAARRGLSYYRGPSEYDYWGQGTQVTVSS has a reported binding result of no binding

The binder listed as Nb36 (CA14130) (VHH) VHH: QVQLVESGGGLVQPGGSLRLSCAASGSIRSITTSAWFRQPPGKQRELVAGISSGTSTNYADSVKGRFTISRDNAKNTVYLQMNSLKPEDTAVYYCHVWISGTWYSGQGTQVTVSS has a reported binding result of no binding

The binder listed as Nb17 (CA13606) (VHH) VHH: QVQLVESGGGLVQPGGSLRLSCAASGSNIGYMAWYRQAPGSQRELVARIASGGSANYADSVKGRFTISRDNVKNTVYLHMNSLKPVDTAVYYCHADAWYNSRWSDYWGQGTQVTVSS has a reported binding result of no binding

The binder listed as Nb37 (CA14131) (VHH) VHH: QVQLVESGGGLVQPGGSLRLSCAASGSVFSTNTMAWFRQAPGKQREWVGGITPGGFTNYINSVKGRFTISRDNANNTIYLQMSSLRPEDTAVYYCNTLSRMALWGQGTQVTVSS has a reported binding result of no binding

Next, consider the following binder.
The binder listed as Nb38 (CA14133) (VHH) VHH: QVQLVESGGGLVQPGGSLRLSCAASGSIRSIATSAWYRQPPGKQRELVAGISSGTTTNYADSVKGRFTISRDNAKNTVYLQMNSLKPEDTAVYYCHAWISGTWISGQGTQVTVSS has a reported binding result of no binding
